# Test system: CD2F1 mice, L1210 leukemia ip, survival T/C
# EXPERIMENT_DESCRIPTION: NCI In Vivo Anticancer Drug Screen. Data for tumor model L1210 Leukemia (intraperitoneal) in CD2F1 (CDF1) mice
# TEST_SETTINGS: endpoint: mean survival time; dose: 100.0 mg/kg/injection; schedule: Q04DX003 (ip); vehicle: saline with Tween-80; higher = longer survival
Inconclusive results and toxic doses are left out.
We begin with a simple list: items and their reported T/C.

Some compounds with known T/C results, for comparison:
COMPOUND: OC1(c2ccccc2)C(N2CCOCC2)=C(c2ccccc2)c2ccccc21 (stereo not given)
T/C: 105 % of control
--
COMPOUND: CCCCOC(=O)CCCCC(=O)OCCCC
T/C: 97 % of control
--
COMPOUND: CC(c1ccccc1)n1cncc1C(=O)N1CCN(C)CC1 (stereo not given)
T/C: 92 % of control
--
COMPOUND: C=C1CC(=O)N(c2ccc(OC)cc2)C1=O
T/C: 104 % of control
--
COMPOUND: CCCCOC(=O)c1ccc(NC(=O)Nc2ccccc2Cl)cc1
T/C: 91 % of control

Under CD2F1 mice, L1210 leukemia ip, survival T/C: T/C value of Cc1ccc(C2(C#N)CCCC2)cc1 ?
97 % of control

====

# Test system: CD2F1 mice, L1210 leukemia ip, survival T/C
# EXPERIMENT_DESCRIPTION: NCI In Vivo Anticancer Drug Screen. Data for tumor model L1210 Leukemia (intraperitoneal) in CD2F1 (CDF1) mice
# TEST_SETTINGS: endpoint: mean survival time; dose: 200.0 mg/kg/injection; schedule: Q01DX009 (ip); vehicle: saline with Tween-80
# Protocol: The antitumor activity of compounds was measured in mice bearing transplantable tumors. Survival or tumor size were measured and the results are expressed as the measurement made in the treated group (T) divided by the measurement made in the vehicle treated control group (C). The tumor model used in this assay is L1210 Leukemia (intraperitoneal) in CD2F1 (CDF1) mice
Toxic doses and inconclusive results are not listed. How the source made its calls: active means survival T/C of 150% or more; inactive means T/C below 125% in these data.
Your answer must be one of the following: active, inactive

Solved cases below.
COMPOUND: COc1ccc(CCNC(=O)/C=C\C(=O)O)cc1OC
ANSWER_LABEL: inactive
//
COMPOUND: c1ccc(C(=NCCN=C(c2ccccc2)c2ccccc2)c2ccccc2)cc1
ANSWER_LABEL: inactive
//
COMPOUND: COc1cc(Cl)ccc1NC(=O)OCCOc1cccc(C)c1
ANSWER_LABEL: inactive

I'd appreciate the recorded outcome for COC(=O)/C1=C/CCCCCC(=O)C1C(=O)OC (centres undefined) from this test.
inactive

Same question, COc1ccc(/C=N/NC(=O)CNC(=O)Nc2cccc(C(F)(F)F)c2)cc1 this time
inactive

Same question, N#CC(c1ccccc1)C(CC(=O)c1ccccc1)c1ccccc1 (centres undefined) this time
inactive

Same question, CC(C)(C)c1cccc(OS(=O)(=O)c2cccc([N+](=O)[O-])c2)c1 this time
inactive

Same question, Cc1ccc(NC(=O)Oc2cc(C)c(Cl)cc2C)cc1C this time
inactive

Same question, CC/C=C(CC)\C(=C\CC)CC this time
inactive

Same question, CCCCOC(=O)CC(=O)OCCCC this time
inactive

Same question, CC(=O)c1cc2ccccc2c2ccccc12 this time
inactive

====

We begin with a simple list: items and their reported T/C.
# Tested on: CD2F1 mice, L1210 leukemia ip, survival T/C
# EXPERIMENT_DESCRIPTION: NCI In Vivo Anticancer Drug Screen. Data for tumor model L1210 Leukemia (intraperitoneal) in CD2F1 (CDF1) mice
# TEST_SETTINGS: endpoint: mean survival time; dose: 25.0 mg/kg/injection; schedule: Q01DX001 (ip); vehicle: saline with Tween-80; higher = longer survival
# Protocol: The antitumor activity of compounds was measured in mice bearing transplantable tumors. Survival or tumor size were measured and the results are expressed as the measurement made in the treated group (T) divided by the measurement made in the vehicle treated control group (C). The tumor model used in this assay is L1210 Leukemia (intraperitoneal) in CD2F1 (CDF1) mice
Inconclusive results and toxic doses are left out.

# T/C lookup, item Cc1cc2c(C(C)C)c(O)c(O)cc2c(O)c1-c1c(C)cc2c(C(C)C)c(O)c(O)cc2c1O
102 % of control

Same question, CN1CC(C(=O)NC(C)(C)C)CC(c2ccccc2)C1 (stereo not drawn) this time
100 % of control

Same question, CN(C)c1ccc(NC(=S)Nc2ccc(N(C)C)cc2)cc1 this time
97 % of control

The measurements presented in this section are drawn from PubChem BioAssay AID256.
